Just for reference, patent US20120214748A1 is where these values come from.

Measured Ki by item
- SYSTEM UNDER TEST: Trypsin
- Sequence (P00760 24-246): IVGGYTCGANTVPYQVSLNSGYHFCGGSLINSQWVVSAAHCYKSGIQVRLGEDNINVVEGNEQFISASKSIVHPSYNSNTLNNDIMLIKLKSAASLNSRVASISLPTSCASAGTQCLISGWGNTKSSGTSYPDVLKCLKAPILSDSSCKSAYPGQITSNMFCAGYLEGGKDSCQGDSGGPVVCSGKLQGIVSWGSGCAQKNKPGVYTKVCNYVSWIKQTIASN
- PROCEDURE TEXT: enzyme inhibition, Z-L-Lys-SBzl substrate, tight-binding fit
Bridge positions count the residues as written; N and C are the ends. Ends that are not written are not given here.
MEASURED PROPERTY: Ki (nM)

1) GYCSRSIPPVCIPD (disulfide 3-11 (inferred), Point mutant of M2-6E) [M2-6E-Y7I]: 160
2) GICSRSLPPICIPD (disulfide 3-11 (inferred), Synthetic consensus peptide of the non-selective group, linear form; also called "NS" peptide; non-selective peptide) [M2-4G]: 260
3) GWCSRSYPPVCIPD (disulfide 3-11 (inferred), Point mutant of M2-6E) [M2-6E-Y2W]: 1700
4) GMCSRSYPPVCIPD (disulfide 3-11 (inferred), Point mutant of M2-6E) [M2-6E-Y2M]: 4000
5) GVCSRSLPPICWPD (disulfide 3-11 (inferred), The parent M1-3E was not tested as a synthetic peptide) [M1-3E-Y12W]: 170
6) cyclo(GICSRSLPPICIPD) (disulfide 3-11 (inferred), Backbone-cyclised form of M2-4G) [M2-4G cyclic]: 350
